measured-target: human Factor XIa (Homo sapiens, UniProt P03951)
Construct: purified human Factor XIa; purchased Sekisui Diagnostics
Sequence (P03951 388-625 limits assumed): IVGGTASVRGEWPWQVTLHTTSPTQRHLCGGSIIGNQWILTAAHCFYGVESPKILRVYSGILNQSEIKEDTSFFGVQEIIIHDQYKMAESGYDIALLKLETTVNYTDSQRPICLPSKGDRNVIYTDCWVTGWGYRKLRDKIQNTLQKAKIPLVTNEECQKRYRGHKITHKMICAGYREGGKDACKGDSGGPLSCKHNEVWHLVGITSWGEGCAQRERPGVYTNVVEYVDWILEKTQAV
Sequence (P03951 19-387 partner limits assumed): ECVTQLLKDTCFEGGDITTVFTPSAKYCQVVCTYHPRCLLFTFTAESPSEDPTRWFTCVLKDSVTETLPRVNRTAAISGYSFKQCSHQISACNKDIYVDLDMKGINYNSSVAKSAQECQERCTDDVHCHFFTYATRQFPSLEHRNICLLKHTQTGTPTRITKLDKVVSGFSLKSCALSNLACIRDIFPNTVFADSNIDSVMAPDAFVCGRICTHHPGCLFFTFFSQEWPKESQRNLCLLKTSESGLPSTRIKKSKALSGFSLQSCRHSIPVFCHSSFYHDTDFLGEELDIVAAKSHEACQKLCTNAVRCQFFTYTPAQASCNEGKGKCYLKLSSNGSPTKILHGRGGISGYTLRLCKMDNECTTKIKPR
test-protocol: Factor XIa Assay
Type: biochemical
reported-conditions: Examples 20-28 table, read-out: F11a IC50
quantity-name: pIC50
As a rule, pIC50 stands for the negative log10 of the concentration, concentration in M.

Worked cases, answers included:
>>> quantitative_readout("O=C(O)c1ccc2nc(C(CC3CC3)c3ccc(-c4cc(Cl)ccc4-n4cnnn4)c[n+]3[O-])[nH]c2c1 (racemic)")
7.85
>>> quantitative_readout("O=C(O)c1ccc2nc(C(CC(=O)N3CCC3)c3ccc(-c4c(F)ccc(Cl)c4F)c[n+]3[O-])[nH]c2c1 (racemic)")
5.10
>>> quantitative_readout("O=C(CC(c1nc2ccc(F)cc2[nH]1)c1ccc(-c2cc(Cl)ccc2-n2cnnn2)c[n+]1[O-])N1CCC1 (single isomer, unassigned) [Example 27]")
7.10
>>> quantitative_readout("O=C(CC(c1nc2ccc(F)cc2[nH]1)c1ccc(-c2cc(Cl)ccc2-n2cnnn2)c[n+]1[O-])N1CCC1 (single isomer, unassigned) [Example 28]")
7.03

[ask] Return reported pIC50 for target or system human Factor XIa (Homo sapiens, UniProt P03951), item "[O-][n+]1cc(-c2c(-n3cnnn3)ccc(Cl)c2F)ccc1[C@@H](Cc1ccccc1)c1nc2cc(F)ccc2[nH]1" .
[reply] 8.74
